For each record, write down the corresponding koff.
# SYSTEM: T1, Recombinant human TSLP-his (human, UniProt Q969D9 29-159)
# T1 construct: Prepared in-house; Amine-coupled to CM5 chip in SPR, loaded on APS sensors in Octet, biotin-labeled in the capture ELISA, unlabeled in the cell functional assays; also called human TSLP-his protein
# EXPERIMENTAL_PROTOCOL: SPR, Biacore T200; below the instrument limit, roughly calculated from the sensorgram

Known results for binders:
| BINDER | koff |
| --- | --- |
| hu1C5F12E9-V5 (antibody, human IgG4 S228P, kappa, V domains shown) VH: QVQLVQSGAEVKKPGASVKVSCKASGYTFTTYWMHWVRQAPGQGLEWMGVIDPSDSDTTYNQKFKGKATMTRDTSTSTVYMELSSLRSEDTAVYYCTRSLDGYYDYWGQGTLVTVSS VL: DIQMTQSPSSLSASVGDRVTITCRPTENIYSYLAWYQQKPGKSPKLLVYFARTLAEGVPSRFSGSGSGTDFTLTISSLQPEDFATYYCQHHYGTPWTFGGGTKVEIKR | < 1e-05 s⁻¹ |
| hu1C5F12E9-V17 (antibody, human IgG4 S228P, kappa, V domains shown) VH: QVQLVQSGAEVKKPGASVKVSCKASGYTFTTYWMHWVRQAPGQGLEWMGVIDPSDSDTTYNQKFKGKATMTRDTSTSTVYMELSSLRSEDTAVYYCTRSLDGYYDYWGQGTLVTVSS VL: DIQMTQSPSSLSASVGDRVTITCRPTENIYSYLAWYQQKPGKSPKLLIYFARTLAEGVPSRFSGSGSGTDFTLTISSLQPEDFATYYCQHHYGTPWTFGGGTKVEIKR | ~6.43e-06 s⁻¹ |
| hu1C5F12E9-V13 (antibody, human IgG4 S228P, kappa, V domains shown) VH: QVQLVQSGAEVKKPGASVKVSCKASGYTFTTYWMHWVRQAPGQGLEWIGVIDPSDSDTTYNQKFKGRATLTVDTSSSTAYMELSSLRSEDTAVYYCTRSLDGYYDYWGQGTLVTVSS VL: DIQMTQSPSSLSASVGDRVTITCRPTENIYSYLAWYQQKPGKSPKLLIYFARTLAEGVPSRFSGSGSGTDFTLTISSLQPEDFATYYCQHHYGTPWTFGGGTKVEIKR | ~3.62e-07 s⁻¹ |
| hu1C5F12E9-V9 (antibody, human IgG4 S228P, kappa, V domains shown) VH: QVQLVQSGAEVKKPGASVKVSCKASGYTFTTYWMHWVRQAPGQGLEWMGVIDPSDSDTTYNQKFKGRVTMTVDTSTSTVYMELSSLRSEDTAVYYCTRSLDGYYDYWGQGTLVTVSS VL: DIQMTQSPSSLSASVGDRVTITCRPTENIYSYLAWYQQKPGKAPKLLIYFARTLAEGVPSRFSGSGSGTDFTLTISSLQPEDFATYYCQHHYGTPWTFGGGTKVEIKR | ~6.57e-07 s⁻¹ |

Query binder follows.
Query :: Give the measured koff for hu1C5F12E9-V7 (antibody, human IgG4 S228P, kappa, V domains shown) VH: QVQLVQSGAEVKKPGASVKVSCKASGYTFTTYWMHWVRQAPGQGLEWIGVIDPSDSDTTYNQKFKGRATLTVDTSSSTAYMELSSLRSEDTAVYYCTRSLDGYYDYWGQGTLVTVSS VL: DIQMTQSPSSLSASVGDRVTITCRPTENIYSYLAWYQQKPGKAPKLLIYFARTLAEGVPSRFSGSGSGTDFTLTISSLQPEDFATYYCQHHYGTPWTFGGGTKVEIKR
Result :: < 1e-05 s⁻¹

Data origin: patent US20220289833A1
